Values from PubChem BioAssay

# assayInfo: S. pombe growth modifiers, basal conditions – strain 972, OD600, 24 h, no modulator, primary screen (AID 1090);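 further: basal condition with compound alone and no growth modifier present; test concentration not given here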
# assayConditions: S. pombe 972 growth, higher = more signal, called active from +8 up or from −8 down
experimentalReadout: z-score
Give bare numbers.

Before answering, review these 2 worked examples.
| compound | quantitativeResult |
| --- | --- |
| O=C(Cc1ccccc1)[C@H]1C2C=CCCC(c3ccccc3)=C2CN1Cc1ccccc1 (some centres undefined) | -1.29 |
| NC(=O)NCC#Cc1ccc2c(c1)[C@]1(C(=O)N2)[C@H](c2ccccc2OCCO)N2[C@H](c3ccccc3)[C@H](c3ccccc3)OC(=O)[C@H]2[C@@H]1C(=O)NC[C@H](O)c1ccccc1 | 1.32 |

Respectfully, I request z-score for each entry included below.
1. COc1ccc([Si](C)(C)[C@@H]2[C@@H](CCO)O[C@]3(C(=O)N(Cc4cccc(NC(=O)[C@H](C)O)c4)c4ccccc43)[C@H]2C)cc1
2. COC(=O)[C@]1(CCS(=O)(=O)c2ccccc2)N=C(c2ccc(OCCCO)cc2)O[C@@H]1c1ccccc1N=[N+]=[N-]

[0.193, -2.44]
